All figures here come from patent US20230390287A1.

Assayed system: PD-1/PD-L1 interaction (Homo sapiens (Human), UniProt Q9NZQ7)
Sequence (Q9NZQ7 19-238): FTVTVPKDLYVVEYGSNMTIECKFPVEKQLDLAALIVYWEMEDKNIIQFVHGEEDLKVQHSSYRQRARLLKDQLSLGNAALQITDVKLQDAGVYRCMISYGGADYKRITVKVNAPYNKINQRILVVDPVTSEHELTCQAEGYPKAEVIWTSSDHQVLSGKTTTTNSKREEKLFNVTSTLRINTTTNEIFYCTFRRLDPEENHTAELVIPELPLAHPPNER
Assay comment: HTRF PD-1/PD-L1 binding assay
Type: biochemical
Conditions used: Table A; HTRF dose-response; NA = Not applicable (No dose-response effect)
Endpoint label: IC50 (nM)

Worked examples, 6 compounds total:
1. O=C(c1ccc(-c2ccccc2)cc1)c1nc(-c2ccc(-c3ccccc3)cc2)c[nH]1 ... 149
2. COc1ccc(-c2nc(N)nc(-c3cc(C)ccc3O)c2Cl)cc1 ... 596
3. CCCCCCCCSc1nc2ccc(/N=C\c3ccccc3O)cc2s1 ... 57
4. Cc1cc(SCC(=O)c2ccc3c(ccc4ccccc43)c2)cc(C)[o+]1.[Br-] ... 149
5. N#Cc1nc(CC(=O)/C=C/c2ccccc2)c(CC(=O)/C=C/c2ccccc2)nc1C#N ... 190
6. CCCCCN(CCCCC)C(C)C(=O)c1cc(C)c2ccc3cc(C(C)C)ccc3c2c1.Cl (stereo not drawn) ... 196

[1] Cc1cc(C)nc(NS(=O)(=O)c2ccc(NC(=O)c3cccnc3Nc3cccc(Cl)c3)cc2)n1
[2] CCN(CC)CCNc1nc(NCCN(CC)CC)c2nc(-c3ccccc3)c(-c3ccccc3)nc2n1
[3] COc1ccc(-c2nc(N)nc(-c3cc(C)ccc3OC)c2Cl)cc1
[4] CN1CCN(S(=O)(=O)c2ccc(-c3ccc4c(Nc5ccc6nn[nH]c6c5)ccnc4c3)cc2)CC1
[5] CC1(C)OCC(C2OC3OC(C)(C)OC3C2NNC(=O)c2cc3cc(OCc4ccccc4)ccc3[nH]2)O1 (stereo not drawn)
-- ask Rank ascending by IC50. Record the ranking as a list of labels in the requested order.
-- reply 2, 5, 1, 3, 4

###

Assayed system: PD-1/PD-L1 interaction (Homo sapiens (Human), UniProt Q9NZQ7)
Assay comment: HTRF PD-1/PD-L1 binding assay
Format: biochemical
Conditions used: Table B; HTRF dose-response; NA = no dose-response effect
pIC50: −log10 of the molar value.
Endpoint label: pIC50

Consider the following illustrative entries.
1) Cc1cc(C)nc(NS(=O)(=O)c2ccc(NC(=O)c3cccnc3Nc3cccc(Cl)c3)cc2)n1 ... 5.81
2) CC1(C)OCC(C2OC3OC(C)(C)OC3C2NNC(=O)c2cc3cc(OCc4ccccc4)ccc3[nH]2)O1 (stereo not drawn) ... 6.42
3) CN1CCN(S(=O)(=O)c2ccc(-c3ccc4c(Nc5ccc6nn[nH]c6c5)ccnc4c3)cc2)CC1 ... 5.40
4) CCCCCCCCSc1nc2ccc(/N=C\c3ccccc3O)cc2s1 ... 7.24
5) CCN(CC)CCNc1nc(NCCN(CC)CC)c2nc(-c3ccccc3)c(-c3ccccc3)nc2n1 ... 6.73

[1] O=C(c1ccc(-c2ccccc2)cc1)c1nc(-c2ccc(-c3ccccc3)cc2)c[nH]1
[2] COc1ccc(-c2nc(N)nc(-c3cc(C)ccc3OC)c2Cl)cc1
-- ask I'm curious whether 1 or 2 has the smaller pIC50 number. Which is it? Write down the label attached to your selection.
-- reply 2
(2: 5.61, 1: 6.83)

###

Assayed system: PD-1/PD-L1 interaction (Homo sapiens (Human))
Assay comment: HTRF PD-1/PD-L1 binding assay
Assay type: biochemical
Conditions used: HTRF dose-response starting from 100 μM
pIC50: −log10 of the molar value.
Endpoint label: pIC50

Would you please look over these solved cases?
1) N#Cc1nc(CC(=O)/C=C/c2ccccc2)c(CC(=O)/C=C/c2ccccc2)nc1C#N ... 6.72
2) CCN(CC)CCNc1nc(NCCN(CC)CC)c2nc(-c3ccccc3)c(-c3ccccc3)nc2n1 ... 6.73
3) Cc1cc(SCC(=O)c2ccc3c(ccc4ccccc43)c2)cc(C)[o+]1.[Br-] ... 6.83
4) Cc1nc(C)c(C(=O)NNC(=O)Cc2ccccc2)cc1C(=O)NNC(=O)Cc1ccccc1 ... 5.96
5) Cc1cc(C)nc(NS(=O)(=O)c2ccc(NC(=O)c3cccnc3Nc3cccc(Cl)c3)cc2)n1 ... 5.81

[a] COc1ccc(-c2nc(N)nc(-c3cc(C)ccc3OC)c2Cl)cc1
[b] CC1(C)OCC(C2OC3OC(C)(C)OC3C2NNC(=O)c2cc3cc(OCc4ccccc4)ccc3[nH]2)O1 (stereo not drawn)
-- ask Choose between a and b : whose measured pIC50 value is numerically larger? # reply format: chosen label
-- reply b
(b: 6.42, a: 5.61)

[A] CN1CCN(S(=O)(=O)c2ccc(-c3ccc4c(Nc5ccc6nn[nH]c6c5)ccnc4c3)cc2)CC1
[B] COc1ccc(-c2nc(N)nc(-c3cc(C)ccc3O)c2Cl)cc1
[C] O=C(c1ccc(-c2ccccc2)cc1)c1nc(-c2ccc(-c3ccccc3)cc2)c[nH]1
[D] CCCCCCCCSc1nc2ccc(/N=C\c3ccccc3O)cc2s1
-- ask Ranking field: pIC50; order: falling. Your answer should be the labels, listed in the requested order.
-- reply D, C, B, A

###

Assayed system: PD-1/PD-L1 interaction (Homo sapiens (Human), UniProt Q9NZQ7)
Assay comment: HTRF PD-1/PD-L1 binding assay
Assay type: biochemical
Conditions used: Table B; HTRF dose-response; NA = no dose-response effect
Endpoint label: IC50 (nM)

[1] COc1ccc(-c2nc(N)nc(-c3cc(C)ccc3O)c2Cl)cc1 [Compound 45]
[2] N#Cc1nc(CC(=O)/C=C/c2ccccc2)c(CC(=O)/C=C/c2ccccc2)nc1C#N [Compound 18]
-- ask Which shows the larger IC50 value: 1 or 2 ? Give the label under which the chosen entry appears.
-- reply 1
(1: 596 nM, 2: 190 nM)

###

Assayed system: PD-1/PD-L1 interaction (Homo sapiens (Human), UniProt Q9NZQ7)
Assay comment: HTRF PD-1/PD-L1 binding assay
Format: biochemical
Conditions used: Table B; HTRF dose-response; NA = no dose-response effect
Endpoint label: IC50 (nM)
The reply should be a number in nM, with the unit left off.

1. Cc1nc(C)c(C(=O)NNC(=O)Cc2ccccc2)cc1C(=O)NNC(=O)Cc1ccccc1 [Compound 84] ... 1090

-- ask Need IC50 of CCCCCN(CCCCC)C(C)C(=O)c1cc(C)c2ccc3cc(C(C)C)ccc3c2c1.Cl (stereo not drawn) [Compound 69] , thanks.
-- reply 196

-- ask Quick one: Cc1cc(SCC(=O)c2ccc3c(ccc4ccccc43)c2)cc(C)[o+]1.[Br-] [Compound 47]
-- reply 149
